Exercise: for every item that follows, state its recorded pEC50.
# Tested on: Human immunodeficiency virus 1
# procedure-text: Antiviral activity against HIV1 LAI with RT Y188L mutation in MT4 cells by EGFP based replication assay
# Format: functional, organism-based
# assay-conditions: Human immunodeficiency virus 1, LAI
Give bare numbers, as −log10 of the molar value.

Previously resolved entries follow.
compound_string=N#C/C=C/c1ccc(Nc2ccnc(Nc3ccc(C#N)cc3)n2)cc1 experimental_value=6.52
compound_string=Cc1cc(/C=C/C#N)cc(C)c1Oc1ccnc(Nc2ccc(C#N)cc2)n1 experimental_value=8.80
compound_string=CCc1cc(/C=C/C#N)cc(C)c1Nc1ccnc(Nc2ccc(C#N)cc2)n1 experimental_value=8.59
compound_string=Cc1cc(/C=C/C#N)ccc1N(C)c1ccnc(Nc2ccc(C#N)cc2)n1 experimental_value=7.77

Data point: Cc1cc(/C=C/C#N)cc(C(C)C)c1Nc1ccnc(Nc2ccc(C#N)cc2)n1 ; pEC50 = 8.42
